system: Acanthamoeba quina; test: Amoebicidal activity against Acanthamoeba quina clinical isolate AcaVNAK03 assessed as minimum trophocidal concentration after 48 hrs by trypan blue exclusion assay; format: functional; details: clinical isolate AcaVNAK03, 48 h
Overview of reported log10 MTC across a group of molecules:
Quick note: numbers are log10 of MTC, with µM as the unit.

Known log10 MTC results, listed for orientation:
| Molecule | log10 MTC |
| --- | --- |
| CC(C)(C)CC(C)(C)c1ccc(OCCOP(=O)([O-])OCCC[N+](C)(C)Cc2ccccc2)cc1 | 2.10 |
| CCCCCCCCCCCCCCCCOP(=O)([O-])OCC[n+]1ccccc1 | 1.80 |
| CCCCCCCCCCCCCCCCOP(=O)([O-])OCC[N+](C)(C)C [MILTEFOSINE] | 2.10 |
| CCCCCCCCCCCCCCCC[N+](C)(C)Cc1ccccc1.[Br-] | 1.19 |
| CCCCCCCCCCCCCCCCOP(=O)([O-])OCCC[N+](C)(C)Cc1ccccc1 | 2.40 |

The value of log10 MTC recorded for CCCCCCCCCCCCCCCCOP(=O)([O-])OCCC[n+]1ccccc1 when tested on Acanthamoeba quina reads 1.19

Bench note, Acanthamoeba quina: CCCCCCCCCCCCCCCCOP(=O)([O-])OCCC[N+](C)(C)C , log10 MTC reads 1.80

For CC(C)(C)CC(C)(C)c1ccc(OCCOP(=O)([O-])OCC[N+](C)(C)Cc2ccccc2)cc1 on Acanthamoeba quina, measured log10 MTC was 2.70

* * *

test system: HeLa; assay: Cytotoxicity against human HeLa cells after 72 hrs by MTT assay; assay type: functional, cell-based
Metric name: IC50 (µM)
Report the figure in µM without appending any unit label.

Please review the entries below; each comes with its answer.
| Compound | U | IC50 |
| --- | --- | --- |
| CCCCCCCCCCCCCCCCOP(=O)([O-])OCCC[N+](C)(C)C | µM | 84.4 |
| CCCCCCCCCCCCCCCCOP(=O)([O-])OCC[N+](C)(C)C [MILTEFOSINE] | µM | 74.4 |
| CCCCCCCCCCCCCCCCOP(=O)([O-])OCCC[n+]1ccccc1 | µM | 74.7 |

Now let's try a different one.
Memo: CCCCCCCCCCCCCCCCOP(=O)([O-])OCC[n+]1ccccc1 , reported IC50: 52.1

* * *

system: Acanthamoeba lugdunensis; assay: Amoebicidal activity against Acanthamoeba lugdunensis clinical isolate AcaVNAK02 assessed as minimum trophocidal concentration after 48 hrs by trypan blue exclusion assay; format: functional; conditions: clinical isolate AcaVNAK02, 48 h
Listing of entries alongside the reported MTC.
Numeric only. Scale: µM

Before answering, review these 2 worked examples.
| Chem smiles | MTC [µM] |
| --- | --- |
| CC(C)(C)CC(C)(C)c1ccc(OCCOP(=O)([O-])OCCC[N+](C)(C)Cc2ccccc2)cc1 | 250 |
| CCCCCCCCCCCCCCCCOP(=O)([O-])OCCC[N+](C)(C)C | 125 |

Turning to the following compound.
// MTC value for CCCCCCCCCCCCCCCC[N+](C)(C)Cc1ccccc1.[Br-] : 15.6

* * *

Each item that follows carries a reported IC50.
system: HeLa; experiment: Cytotoxicity against human HeLa cells after 72 hrs by MTT assay; type: functional, cell-based
Respond with the bare value in µM.

| Chem smiles | Target desc | IC50 (µM) |
| --- | --- | --- |
| CCCCCCCCCCCCCCCCOP(=O)([O-])OCC[N+](C)(C)Cc1ccccc1 | HeLa | 55.7 |
| CCCCCCCCCCCCCCCCOP(=O)([O-])OCCC[N+](C)(C)Cc1ccccc1 | HeLa | 62.1 |

Now turn to the next compound.
The reported value for CCCCCCCCCCCCCCCC[N+](C)(C)Cc1ccccc1.[Br-] in terms of IC50 is 2.8

* * *

system: Acanthamoeba lugdunensis; assay: Amoebicidal activity against Acanthamoeba lugdunensis clinical isolate AcaVNAK02 assessed as minimum trophocidal concentration after 48 hrs by trypan blue exclusion assay; format: functional; conditions: clinical isolate AcaVNAK02, 48 h
As shown below, each of these compounds has a reported MTC value.
Please state the figure in µM; there is no need to write the unit.

Completed entries (count: 3):
| Compound | MTC [µM] |
| --- | --- |
| CC(C)(C)CC(C)(C)c1ccc(OCCOP(=O)([O-])OCC[N+](C)(C)Cc2ccccc2)cc1 | 250 |
| CCCCCCCCCCCCCCCCOP(=O)([O-])OCC[N+](C)(C)C [MILTEFOSINE] | 250 |
| CCCCCCCCCCCCCCCCOP(=O)([O-])OCC[n+]1ccccc1 | 62.5 |

Data point: CCCCCCCCCCCCCCCCOP(=O)([O-])OCCC[N+](C)(C)Cc1ccccc1 ; MTC = 125

Lab note: measured MTC of CCCCCCCCCCCCCCCCOP(=O)([O-])OCCC[n+]1ccccc1 was 250
